Values from patent US20240116985A1

Reported pIC50 values for a set of molecules
# Tgt: full-length beta-Catenin (Uniprot ID P35222) (Homo sapiens)
# Construct: 10 nM full-length beta-Catenin (Uniprot ID P35222)
# Sequence (P35222 1-781): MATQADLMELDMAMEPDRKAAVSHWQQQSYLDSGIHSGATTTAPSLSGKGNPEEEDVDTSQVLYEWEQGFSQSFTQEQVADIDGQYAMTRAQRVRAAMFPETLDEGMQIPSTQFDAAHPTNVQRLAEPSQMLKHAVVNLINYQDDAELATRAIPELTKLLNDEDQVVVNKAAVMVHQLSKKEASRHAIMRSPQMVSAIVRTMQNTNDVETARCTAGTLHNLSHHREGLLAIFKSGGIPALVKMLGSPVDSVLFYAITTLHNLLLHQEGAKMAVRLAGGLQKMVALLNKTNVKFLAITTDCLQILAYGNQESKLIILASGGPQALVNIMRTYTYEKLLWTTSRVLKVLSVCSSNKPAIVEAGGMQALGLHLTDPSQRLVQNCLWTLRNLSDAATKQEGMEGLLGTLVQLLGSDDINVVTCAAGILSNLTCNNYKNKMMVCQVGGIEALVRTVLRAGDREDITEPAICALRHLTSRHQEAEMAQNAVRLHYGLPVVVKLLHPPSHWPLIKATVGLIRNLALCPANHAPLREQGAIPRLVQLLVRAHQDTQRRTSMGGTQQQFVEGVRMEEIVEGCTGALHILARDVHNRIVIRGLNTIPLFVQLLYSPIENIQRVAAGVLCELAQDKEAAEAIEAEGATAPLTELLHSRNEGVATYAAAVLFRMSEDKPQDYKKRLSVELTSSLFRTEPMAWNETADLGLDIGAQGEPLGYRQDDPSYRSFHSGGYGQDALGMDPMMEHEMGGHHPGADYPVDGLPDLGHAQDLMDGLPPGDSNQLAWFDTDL
# Test Details: Fluorescence polarization IC50 (beta-catenin / 5FAM-TCF4 10-53 competition)
# Type: binding
# Test Conditions: fluorescence polarization; read-out: beta-Catenin FP IC50
Just the number, please; pIC50 means minus log10 of the concentration in mol/L.

Observe how each entry below is paired with its result.
CC(=O)N1CCC[C@]12CC=CCCCC1(CCCC=CCCCCCC[C@@](C)(C(=O)N[C@@H](Cc3ccccc3)C(=O)N[C@@H](Cc3csc4ccccc34)C(=O)N[C@@H](CCC(N)=O)C(N)=O)NC(=O)[C@H](CC(N)=O)NC(=O)[C@H](Cc3ccccc3)NC(=O)[C@H](C)NC(=O)[C@H](C)NC(=O)[C@H](CCC(=O)O)NC(=O)[C@H](CC(=O)O)NC1=O)NC(=O)[C@H](C)NC(=O)[C@H](CNS(C)(=O)=O)NC2=O (stereo partly drawn) | 5.30
CC(=O)N1CCC[C@]12CC=CCCCC1(CCCC=CCCCOC(=O)N3CC[C@@](C(=O)N[C@@H](Cc4ccccc4C(F)(F)F)C(=O)N[C@@H](Cc4csc5ccccc45)C(=O)N[C@H](C)C(N)=O)(C3)NC(=O)[C@H](Cc3ccccc3)NC(=O)[C@H](Cc3ccccc3)NC(=O)[C@H](C)NC(=O)[C@H](C)NC(=O)[C@H](Cc3cccc(C(=O)O)c3)NC(=O)[C@H](CC(=O)O)NC1=O)NC(=O)[C@H](CC(C)(C)C)NC(=O)[C@H](CC(=O)O)NC2=O (stereo partly drawn) | 7.11
CC(=O)N1CCC[C@]12CC=CCCCC1(CCCC=CCCCOC(=O)N3CC[C@@](C(=O)N[C@@H](Cc4ccsc4)C(=O)N[C@@H](Cc4csc5ccccc45)C(=O)N[C@@H](Cc4c[nH]cn4)C(=O)N[C@@H](CCCCN)C(N)=O)(C3)NC(=O)[C@H](CCC(N)=O)NC(=O)[C@H](Cc3ccccc3)NC(=O)[C@H](C)NC(=O)[C@H](C)NC(=O)[C@H](CC(=O)O)NC(=O)[C@H](CC(=O)O)NC1=O)NC(=O)[C@H](CC(C)(C)C)NC(=O)[C@H](CC(=O)O)NC2=O (stereo partly drawn) [I-2229] | 8.22
CC(=O)N1CCC[C@]12CC=CCCCC1(CCCC=CCCCOC(=O)N3CC[C@@](C(=O)N[C@@H](Cc4ccccc4Cl)C(=O)N[C@@H](Cc4csc5ccccc45)C(=O)N[C@@H](CCC(N)=O)C(N)=O)(C3)NC(=O)[C@H]([C@@H](C)O)NC(=O)[C@H](Cc3ccccc3)NC(=O)[C@H](C)NC(=O)CNC(=O)[C@H](CN(CC(=O)O)CC(F)(F)F)NC(=O)[C@H](CC(=O)O)NC1=O)NC(=O)[C@H](CC(C)(C)C)NC(=O)[C@H](CC(=O)O)NC2=O (stereo partly drawn) [I-1690] | 7.96
CC(=O)N1CCC[C@]12CC=CCCCC1(CCCC=CCCCOC(=O)N3CC[C@@](C(=O)N[C@@H](Cc4ccsc4)C(=O)N[C@@H](Cc4csc5ccccc45)C(=O)N[C@@H](CCC(N)=O)C(N)=O)(C3)NC(=O)[C@H](CCO)NC(=O)[C@H](Cc3cccc(C(=O)O)c3)NC(=O)[C@H](C)NC(=O)[C@H](C)NC(=O)[C@H](Cc3ccc(O)cc3)NC(=O)[C@H](CC(=O)O)NC1=O)NC(=O)[C@H](CC(C)(C)C)NC(=O)[C@H](CC(=O)O)NC2=O (stereo partly drawn) [I-2125] | 7.59

molecule CC(=O)N1CCC[C@]12CC=CCCCC1(CCCC=CCCCOC(=O)N3CC[C@@](C(=O)N[C@@H](Cc4cccc(Cl)c4)C(=O)N[C@@H](Cc4csc5ccccc45)C(=O)N[C@@H](CCC(N)=O)C(N)=O)(C3)NC(=O)[C@H](CC(N)=O)NC(=O)[C@H](Cc3ccccc3)NC(=O)[C@H](C)NC(=O)[C@H](C)NC(=O)[C@H]([C@@H](C)O)NC(=O)[C@H](CC(N)=O)NC1=O)NC(=O)[C@H](CC(C)(C)C)NC(=O)[C@H](CC(=O)O)NC2=O (stereo partly drawn) [I-2001] , pIC50 observed: 5.35

Data point: CC(=O)N1CCC[C@]12CC=CCCCC1(CCCC=CCCCOC(=O)N3CC[C@@](C(=O)N[C@@H](Cc4ccsc4)C(=O)N[C@@H](Cc4csc5ccccc45)C(=O)N[C@@H](CCC(N)=O)C(N)=O)(C3)NC(=O)[C@H]([C@@H](C)O)NC(=O)[C@H](Cc3ccccc3)NC(=O)[C@H](C)NC(=O)[C@H](C)NC(=O)[C@H]([C@@H](C)O)NC(=O)[C@H](CC(N)=O)NC1=O)NC(=O)[C@H](CC(C)(C)C)NC(=O)[C@H](CC(=O)O)NC2=O (stereo partly drawn) ; pIC50 = 6.58

Note to self: pIC50 recorded for CCCC[C@@H]1NC(=O)[C@H](Cc2ccccc2)NC(=O)[C@H](C)NC(=O)[C@H](C)NC(=O)[C@H](CC(=O)O)NC(=O)[C@H](CC(=O)O)NC(=O)C2(CCCC=CCCCOC(=O)N3CC[C@@](C(=O)N[C@@H](Cc4ccccc4)C(=O)N[C@@H](Cc4csc5ccccc45)C(=O)N[C@@H](CCC(N)=O)C(N)=O)(C3)NC1=O)CCCC=CC[C@]1(CCCN1C(C)=O)C(=O)N[C@@H](CC(=O)O)C(=O)N[C@@H](CC(C)C)C(=O)N2 (stereo partly drawn) was 6.95

Record summary for CC(=O)N1CCC[C@]12CC=CCCCC1(CCCC=CCCCOC(=O)N3CC[C@@](C(=O)N[C@@H](Cc4ccccc4)C(=O)N[C@@H](Cc4csc5ccccc45)C(=O)N[C@H](C(N)=O)[C@@H](C)O)(C3)NC(=O)[C@H](CC(N)=O)NC(=O)[C@H](Cc3ccccc3)NC(=O)[C@H](C)NC(=O)[C@H](CCCCNC(C)C)NC(=O)[C@H](CCC(N)=O)NC(=O)[C@H](CC(=O)O)NC1=O)NC(=O)[C@H](CC1CCCCC1)NC(=O)[C@H](CC(N)=O)NC2=O (stereo partly drawn) : reported pIC50 = 6.30
